- EXPERIMENT: small-molecule microarray binders of probe aNog, primary screen, biochemical, biotinylated probe, 635/667 nm fluorescence (AID 1115);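 also: probe is biotinylated aNog protein used at 0.15 µg/mL for 1 h at 4 C; z-score combines 667 nm fluorescence of each spot with its signal to noise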
- MEASUREMENT_CONTEXT: higher = more signal
Cut-off -0.3 on composite z-score, inclusive. At or above means Criterion met; below means Criterion not met.

COMPOUND: COc1cccc([C@H]2Oc3ccc(OC)cc3C(=NO[C@@H]3O[C@H](COC(C)=O)[C@@H](OC(C)=O)[C@H](OC(C)=O)[C@H]3OC(C)=O)[C@@H]2O)c1
ASSIGNED_LABEL: Criterion met

COMPOUND: O=C1CCCC=C1C(O)CCCCBr (stereo unspecified)
ASSIGNED_LABEL: Criterion not met

COMPOUND: C[C@@H](c1ccccc1)N1C(=O)[C@H]2[C@H]3[C@H](O)[C@H](O)CC(=O)[C@H]3CC[C@H]2C1=O
ASSIGNED_LABEL: Criterion met

COMPOUND: CO[C@@H]1C=CCC(=O)N[C@@H](C)C(=O)OC[C@@H](OC)[C@H](C)CCCC(=O)OC[C@H]1C
ASSIGNED_LABEL: Criterion not met

COMPOUND: CC(C)CON=C1C[C@@H](O)[C@@H](O)[C@@H]2[C@@H]3C(=O)N(Cc4ccc5c(c4)OCO5)C(=O)[C@@H]3CC[C@H]12
ASSIGNED_LABEL: Criterion not met

COMPOUND: CC(C)(C)N1C(=O)[C@H]2[C@H]3[C@H](O)C=CC(=O)[C@@H]3CC[C@H]2C1=O
ASSIGNED_LABEL: Criterion met

COMPOUND: CON=CC[C@@H]1C=C[C@H](OC(C)=O)[C@@H](COC(C)=O)O1
ASSIGNED_LABEL: Criterion met

COMPOUND: CCOC(=O)[C@H](CC(C)C)NC(=O)CCC1CC(OC(=O)NCc2cccc3ccccc23)CC2(CCCC(COC(=O)NCCC(C)C)O2)O1 (stereo partly specified)
ASSIGNED_LABEL: Criterion not met

COMPOUND: COC(=O)[C@H](C)NC(=O)CCC1CC(OC(=O)NCCc2ccc(F)cc2)CC2(CCCC(COC(=O)NCCC(C)C)O2)O1 (stereo partly specified)
ASSIGNED_LABEL: Criterion met

COMPOUND: CC(C)=NOC[C@@H](C)[C@H](OCc1ccccc1)C(C)C
ASSIGNED_LABEL: Criterion not met

COMPOUND: COC(=O)[C@@H]1CC[C@H](C)[C@@H](c2ccc(C)cc2)N1C(=O)c1ccc(C=NO[C@@H](C)c2cn([C@H](CO)Cc3ccccc3)nn2)cc1
ASSIGNED_LABEL: Criterion met

COMPOUND: CC(C)CON=C1C[C@@H](O)[C@@H](O)[C@@H]2[C@@H]3C(=O)N(C4CCCCC4)C(=O)[C@@H]3CC[C@@H]12
ASSIGNED_LABEL: Criterion not met

COMPOUND: CCC(=O)[C@@]1(O)C(=O)N2C(=C3C(=O)OCC[C@@H]31)N(Cc1ccccc1)C(C)=C(C(=O)OC)[C@H]2c1ccccc1
ASSIGNED_LABEL: Criterion not met

COMPOUND: CON=C(C)CCC(=O)OC[C@H]1O[C@H](c2ccccc2)C=C[C@@H]1Oc1ccc(OC)cc1
ASSIGNED_LABEL: Criterion met

COMPOUND: C[C@@H]1NC(=O)[C@@H](C)COC(=O)[C@H](C)NC(=O)[C@@H](C)COC1=O
ASSIGNED_LABEL: Criterion met

COMPOUND: COc1ccc(O[C@H]2C=C[C@@H](c3ccccc3)O[C@@H]2CON=C(C)C)cc1
ASSIGNED_LABEL: Criterion met

COMPOUND: C#CCCCON=C1C[C@@H](O)[C@@H](O)[C@@H]2[C@@H]3C(=O)N(c4ccc(F)cc4F)C(=O)[C@@H]3CC[C@H]12
ASSIGNED_LABEL: Criterion met

COMPOUND: O=C1C[C@@H](O)[C@@H](O)[C@@H]2[C@@H]3C(=O)N(c4cccc(Oc5ccccc5)c4)C(=O)[C@@H]3CC[C@H]12
ASSIGNED_LABEL: Criterion not met

COMPOUND: COC(=O)CC=C[C@@H](C)[C@@H]1C=C[C@H](O)[C@@H](CO)O1
ASSIGNED_LABEL: Criterion not met

COMPOUND: C[C@@H]1CC[C@H]2C(=O)O[C@@H](Cc3ccccc3)CN2[C@H]1c1ccc(Br)cc1
ASSIGNED_LABEL: Criterion met

COMPOUND: COc1cccc([C@@H]2Oc3ccc(OC)cc3C(=O)[C@H]2O)c1
ASSIGNED_LABEL: Criterion not met

COMPOUND: CCOC(=O)[C@H](CC(C)C)NC(=O)CCC1CC(OC(=O)NCc2ccc3c(c2)OCO3)CC2(CCCC(COC(=O)NCCCN3CCCC3=O)O2)O1 (stereo partly specified)
ASSIGNED_LABEL: Criterion met

COMPOUND: CCOC(=O)[C@H](CC(C)C)NC(=O)CCC1CC(OC(=O)NCCc2ccc(F)cc2)CC2(CCCC(COC(=O)NCCc3ccc(Cl)cc3)O2)O1 (stereo partly specified)
ASSIGNED_LABEL: Criterion not met

COMPOUND: Cc1ccc(S(=O)(=O)N[C@@H]2COC(=O)[C@@H](C)COC(=O)CC=C[C@H]2C)cc1
ASSIGNED_LABEL: Criterion met

COMPOUND: O=C1C=C[C@@H](O)[C@@H]2[C@@H]3C(=O)N(c4ccc(F)cc4F)C(=O)[C@@H]3CC[C@@H]12
ASSIGNED_LABEL: Criterion met
